# test details: Cyclic voltammetry in MeCN (W(IV) to W(V))
# Type: physicochemical
# recorded conditions: vs. NHE, scan rate 200 mV/s
Decision: E1/2 compared against 1 V; not below it gives criterion met, below it gives criterion not met.

Answered cases to consult:
CCc1occc(=O)c1[O-].F[P-](F)(F)(F)(F)F.[W+4].c1cc[cH-]c1.c1cc[cH-]c1 [Compound 9]; criterion met
Cc1c([O-])c(=O)ccn1C.F[P-](F)(F)(F)(F)F.[W+4].c1cc[cH-]c1.c1cc[cH-]c1 [Compound 6]; criterion not met
Cc1cc(=S)c([O-])co1.F[P-](F)(F)(F)(F)F.[W+4].c1cc[cH-]c1.c1cc[cH-]c1 [Compound 8]; criterion met

Item Cc1occc(=S)c1[O-].F[P-](F)(F)(F)(F)F.[W+4].c1cc[cH-]c1.c1cc[cH-]c1 [Compound 2] with E1/2 of 1 V or above? criterion met

Item F[P-](F)(F)(F)(F)F.O=C([O-])c1ccccn1.[W+4].c1cc[cH-]c1.c1cc[cH-]c1 [Compound 5] with E1/2 of 1 V or above? criterion met

Item Cc1cc(=O)c([O-])co1.F[P-](F)(F)(F)(F)F.[W+4].c1cc[cH-]c1.c1cc[cH-]c1 [Compound 7] with E1/2 of 1 V or above? criterion met

Every entry's value here was drawn from paper PMC10384408.
